Tgt: HLA-A*0201 molecules on T2 cells (CEMX721.174.T2) (human)
Run description: cell-based or functional assay
Cut-off 0.004 mM on Competitor activity [mM] 50%: below means label 1, at or above means label 0.

{"Binder": "SLLMWITQL [NY-ESO-1 157-C165L peptide SLLMWITQL (SEQ ID NO:7)]", "Assigned label": "label 1"}
{"Binder": "SLLMWATQA [peptide SLLMWATQA (SEQ ID NO:25)]", "Assigned label": "label 0"}
{"Binder": "SLLMWITQS [peptide SLLMWITQS (SEQ ID NO:19)]", "Assigned label": "label 0"}
{"Binder": "QLSLLMWIT [NY-ESO-1 155-163 peptide QLSLLMWIT (SEQ ID NO:3)]", "Assigned label": "label 0"}
{"Binder": "SLLMWIAQA [peptide SLLMWIAQA (SEQ ID NO:26)]", "Assigned label": "label 1"}
{"Binder": "SLLAWITQA [peptide SLLAWITQA (SEQ ID NO:23)]", "Assigned label": "label 1"}
{"Binder": "ALLMWITQA [peptide ALLMWITQA (SEQ ID NO:20)]", "Assigned label": "label 1"}
